experimentSummary: Multiple ascending dose (MAD) part, plasma pharmacokinetics
Assay type: in vivo, human
testContext: human, plasma; Treatment A (100 mg ASD-in-Capsule oral), Day 1; mean
measurementName: AUC(0-inf) (ng·h/mL)
# output: bare number, implied unit ng·h/mL

What value of AUC(0-inf) has been reported for the following compound? Cc1cccc(COc2ccc(Sc3ccoc3C3NC(=O)NC3=O)cc2)c1 (stereo not shown)
3550

* * *

experimentSummary: Multiple ascending dose (MAD) part, plasma pharmacokinetics
Format: in vivo, human
testContext: human, plasma, po, 200 mg, Treatment B (200 mg ASD-in-Capsule oral), Day 1; mean; read-out: AUC0-24
measurementName: AUC(0-t) (ng·h/mL)
The reply should be a number in ng·h/mL, with the unit left off.

AUC(0-t) lookup needed for Cc1cccc(COc2ccc(Sc3ccoc3C3NC(=O)NC3=O)cc2)c1 (stereo not shown) , thanks.
9720
